Test system: pneumococci
PROTOCOL_DESCRIPTION: microbe, parasite or virus in culture
Type: cell-based, S. pneumoniae
CONDITION_SUMMARY: Streptococcus pneumoniae, pneumococci, L4 mutations (27)
REPORTED_PROPERTY: MIC50
Just so you know, I need the unit written after the number.

Examples from the recorded data:
- COc1c(N2C[C@@H]3CCCN[C@@H]3C2)c(F)cc2c(=O)c(C(=O)O)cn(C3CC3)c12 [moxifloxacin]: 0.25 µg/mL
- CC[C@H]1OC(=O)[C@H](C)[C@@H](O[C@H]2C[C@@](C)(OC)[C@@H](O)[C@H](C)O2)[C@H](C)[C@@H](O[C@@H]2O[C@H](C)C[C@H](N(C)C)[C@H]2O)[C@](C)(OC)C[C@@H](C)C(=O)[C@H](C)[C@@H](O)[C@]1(C)O [CLR, clarithromycin]: 16 µg/mL

Please find the next compound below.
Input line: Read the entry CCC[C@@H]1C[C@@H](C(=O)N[C@@H]([C@H]2O[C@H](SC)[C@H](O)[C@@H](O)[C@H]2O)[C@H](C)Cl)N(C)C1 [CLN, clindamycin] and write its reported MIC50.
Output line: 0.06 µg/mL

Data provenance: patent US9901592B2
